System: M14
assay.summary: NCI tumour cell line growth inhibition, 48 h
The source made the active and inactive calls. Rule as the data show it: active = GI50 up to about 1.1 µM and inactive = higher.
I'd be grateful if you could share measured GI50 for these entries.

So for O=C(/C=C\c1ccccc1)Oc1ccc(/C=C2\CCCCC2=O)cc1 , the logged GI50 turned out to be 40.6 µM (inactive)

The recorded GI50 for C=CCC12CCC(=O)[C@@]1(C)CC=C(O)C2=O (stereo partly drawn) is > 100 µM (inactive)

Record Cn1c(=S)c2nc(SCCN3CCCC3)[nH]c2n(C)c1=O . Reported GI50: > 100 µM (inactive)

Item: CCC(=O)NC(Nc1cccc(F)c1)(C(F)(F)F)C(F)(F)F | GI50: > 100 µM (inactive)

Quick note, GI50 for COc1cc(C2c3cc4c(cc3C3OC[C@@H]2C3CO)OCO4)cc(OC)c1OC (stereo partly drawn) landed at 31.3 µM (inactive)

The recorded GI50 for entry CCCC(=O)Oc1ccc(/C=N/NC(N)=S)nc1 equals 98.6 µM (inactive)

For record COc1cc2c(cc1C)[n+]([O-])c(C)c(C(=O)C/C(=N/NC(=O)C[N+](C)(C)C)C(=O)Nc1cccc(Cl)c1C)[n+]2[O-] the listed GI50 is > 100 µM (inactive)

Measured GI50 of O=C(O)c1c(Br)c(Br)c(Br)c(Br)c1C1c2ccc(O)cc2Oc2cc(O)ccc21 : > 100 µM (inactive)

The recorded GI50 for entry CNC(=O)C(C)NC(=O)C(Cc1ccccc1)NC(=O)c1ccccc1 (stereo not drawn) equals > 100 µM (inactive)

# GI50 (compound: O=C1/C(=C/c2cccc(F)c2)CCCc2ccccc21 ) is 13.9 µM (inactive)

Sample Cc1cc(=O)oc2cc(OS(C)(=O)=O)ccc12 ; GI50 observed: > 100 µM (inactive)

// GI50 value for COc1ccc(-c2[nH]c(=O)n(C3OC(CO)C(O)C(O)C3O)c(=O)c2C#N)cc1 (stereo not drawn) : > 100 µM (inactive)

For O=C(c1ccco1)N1CCCN(C(=O)c2ccco2)C1=S the compound record lists GI50 as > 100 µM (inactive)

---

System: Malme-3M
assay.summary: NCI tumour cell line growth inhibition, 48 h
Calls of active or inactive are those of the source. Cut-off read from the data, not from the text of the source: active = GI50 up to about 1.1 µM and inactive = higher.
I would appreciate it if you answered using one of these outcomes: active, inactive

Q) // outcome(item) with item = c1ccc(C/C(=N\Nc2nc3ccccc3[nH]2)c2ccccn2)cc1
A) active

Q) Look up the recorded call for COc1ccc2[nH]cc(CCNC(=O)[C@](O)(Cc3cn(C)c4ccccc34)[C@@]3(O)OCC(O)C3O)c2c1 (stereo partly specified) in this test.
A) inactive

Q) How did this test come out for O=C(O)CSCC(=O)O ?
A) inactive

Q) GET /call?item= Clc1ccc(/C(=C\c2ccccc2)Cn2ccnc2)cc1 returns the recorded outcome of this test.
A) inactive

Q) Please indicate how the test categorized Nc1ccccc1C(=O)/C=C/c1c(O)ccc2ccccc12 .
A) inactive

Q) Test call, this molecule: CC(=N\c1ccncc1)/C(C)=N/c1ccncc1
A) inactive

Q) Hello, I am checking results. What call was entered for CCOC(=O)Nc1ccc(S(=O)(=O)OC)cc1.CCOC(=O)Nc1ccc(S(=O)(=O)OC)cc1.NNC(=O)c1ccncc1 ?
A) inactive

Q) // param item: CC(C)C1=CC23CCC4C(C)(C(=O)O)CCCC4(C)C2CC1C(C(=O)O)C3C(=O)O (stereo unspecified) ; yields the recorded call
A) inactive

Q) // param item: C=CCN1C(=O)CNC1=S ; yields the recorded call
A) inactive

Q) Assay result, entry FC(F)(F)c1cc(N(C2c3ccccc3C=Cc3ccccc32)P(Cl)Cl)cc(C(F)(F)F)c1 — outcome?
A) inactive

Q) // return assay outcome for COc1cccc2c1C(=O)C=CC2=O
A) inactive
